Data provenance is patent US20230257449A1.

Parameter: EC50. Scope: all listed entries.
- Target or test system: H1 (A/Cali/09/2007)
- Protocol description: ELISA

Binder	EC50 / nM
VH 10 / VL 2 (antibody, V domains shown) VH: QVQLVQSGAEVKKPGSSVKVSCKASGFTFSTYAIHWVRQAPGQGLEWMGVISYDANYKYYAQKFQGRVTITRDNSKSTAYMELSSLRSEDTAVYYCARDSRLRSLLYFEWLSQGYFDYWGQGTTLTVSS VL: DIQMTQSPSSLSASVGDRVTITCRSSQSITFDYKNYLAWYQQKPGKAPKLLIYWGSSLQSGVPSRFSGSGSGTDFTLTISSLQPEDFATYYCQQHYRTPPSFGQGTKVEIK	0.0227
VH 8 / VL 6 (antibody, V domains shown) VH: EVQLLESGGGLVQPGGSLRLSCAASGFTFSSYAMHWVRQAPGKGLEWVAVISYDANYKYYADSVKGRFTISRDNSKNTLYLQMNSLRAEDTAVYYCAKDSRLRSLLYFEWLSQGYFDYWGQGTLVTVSS VL: EIVMTQSPATLSVSPGERATLSCRSSQSITFDYKNYLAWYQQKPGQAPRLLIYWGSTRATGIPARFSGSGSGTEFTLTISSLQSEDFAVYYCQQHYRTPPSFGQGTKVEIK	0.0269
VH 6 / VL 2 (antibody, V domains shown) VH: QVQLVESGGGVVQPGRSLRLSCAASGFTFDTYAMHWVRQAPGKGLEWVAVISYDANYKYYADSVKGRFTISRDNSKNTLYLQMNSLRAEDTAVYYCARDSRLRSLLYFEWLSQGYFDYWGQGTLVTVSS VL: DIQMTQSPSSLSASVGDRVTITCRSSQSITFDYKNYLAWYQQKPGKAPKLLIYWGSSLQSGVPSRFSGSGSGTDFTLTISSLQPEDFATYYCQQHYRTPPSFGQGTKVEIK	0.0207
VH 7 / VL 6 (antibody, V domains shown) VH: EVQLLESGGGLVQPGGSLRLSCAASGFTFSSYAMHWVRQAPGKGLEWVSVISYDANYKYYADSVKGRFTISRDNSKNTLYLQMNSLRAEDTAVYYCAKDSQLRSLLYFEWLSQGYFDYWGQGTTLTVSS VL: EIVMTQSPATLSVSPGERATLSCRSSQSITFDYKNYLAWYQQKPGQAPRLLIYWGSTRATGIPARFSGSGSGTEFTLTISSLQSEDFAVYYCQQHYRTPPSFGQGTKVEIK	0.0239
VH 8 / VL 3 (antibody, V domains shown) VH: EVQLLESGGGLVQPGGSLRLSCAASGFTFSSYAMHWVRQAPGKGLEWVAVISYDANYKYYADSVKGRFTISRDNSKNTLYLQMNSLRAEDTAVYYCAKDSRLRSLLYFEWLSQGYFDYWGQGTLVTVSS VL: DIQMTQSPSSLSASVGDRVTITCRSSQSITFDYKNYLAWYQQKPGKAPKLLIYAASSLQSGVPSRFSGSGSGTDFTLTISSLQPEDFATYYCQQHYRTPPSFGQGTKVEIK	0.0218
